# subject of test: Acetylcholinesterase (Homo sapiens, UniProt P22303)
# Sequence (P22303 whole entry): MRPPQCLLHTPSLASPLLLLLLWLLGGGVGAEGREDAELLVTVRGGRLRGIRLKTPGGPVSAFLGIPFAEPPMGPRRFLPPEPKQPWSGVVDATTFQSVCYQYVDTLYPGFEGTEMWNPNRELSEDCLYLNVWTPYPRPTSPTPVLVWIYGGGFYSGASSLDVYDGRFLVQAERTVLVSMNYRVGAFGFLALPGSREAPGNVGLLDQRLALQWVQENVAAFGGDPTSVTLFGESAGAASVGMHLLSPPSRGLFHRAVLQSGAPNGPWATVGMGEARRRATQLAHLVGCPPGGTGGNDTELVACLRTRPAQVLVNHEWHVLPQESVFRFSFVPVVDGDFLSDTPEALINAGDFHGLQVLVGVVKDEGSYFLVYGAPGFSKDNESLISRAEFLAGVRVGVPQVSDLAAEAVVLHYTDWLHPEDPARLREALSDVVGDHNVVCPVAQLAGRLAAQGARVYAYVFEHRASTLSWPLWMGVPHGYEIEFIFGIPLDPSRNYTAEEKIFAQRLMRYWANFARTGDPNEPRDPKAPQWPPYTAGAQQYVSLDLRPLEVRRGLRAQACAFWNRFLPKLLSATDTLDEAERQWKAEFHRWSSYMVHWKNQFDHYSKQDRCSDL
# assay summary: Inhibition of human recombinant AChE-induced amyloid beta aggregation by thioflavin T fluorescence method
Overview of reported IC50 across a group of compounds:
property label: IC50

>  <smiles notation>
CC[C@@]1(c2cccc(O)c2)CCCCN(CCCCCCCCCCN2CCCC[C@@](CC)(c3cccc(O)c3)C2)C1

>  <observed value>
5.8 µM

$$$$
>  <smiles notation>
CC[C@@]1(c2cccc(O)c2)CCCCN(CCCCCCCCCN2CCCC[C@@](CC)(c3cccc(O)c3)C2)C1

>  <observed value>
16.6 µM

$$$$

----------
Overview of reported inhibition across a group of compounds:
# subject of test: Acetylcholinesterase (Homo sapiens, UniProt P22303)
# assay summary: Inhibition of human recombinant AChE-induced amyloid beta aggregation at 100 uM by thioflavin T fluorescence method

>  <smiles notation>
CC[C@@]1(c2cccc(O)c2)CCCCN(CCCCCCCCN2CCCC[C@@](CC)(c3cccc(O)c3)C2)C1

>  <inhibition>
0%

$$$$
>  <smiles notation>
CC[N+](C)(CC)CCC[n+]1c(-c2ccccc2)c2cc(N)ccc2c2ccc(N)cc21

>  <inhibition>
85.6%

$$$$
>  <smiles notation>
CC[C@@]1(c2cccc(O)c2)CCCCN(CCCCCCCCCN2CCCC[C@@](CC)(c3cccc(O)c3)C2)C1

>  <inhibition>
90.8%

$$$$
>  <smiles notation>
CC[C@@]1(c2cccc(O)c2)CCCCN(CCCCCCCCCCN2CCCC[C@@](CC)(c3cccc(O)c3)C2)C1

>  <inhibition>
95.8%

$$$$

----------
# subject of test: Acetylcholinesterase (Homo sapiens, UniProt P22303)
# assay summary: Inhibition of human recombinant AChE-induced amyloid beta aggregation at 200 uM by thioflavin T fluorescence method
Each entry gets Not fulfilled if its inhibition stays under 20%, and Fulfilled if its inhibition is 20% or above.

>  <compound>
CC[C@@]1(c2cccc(O)c2)CCCCN(CCCCCCCCCN2CCCC[C@@](CC)(c3cccc(O)c3)C2)C1

>  <label value>
Fulfilled

$$$$
>  <compound>
CC[N+](C)(CC)CCC[n+]1c(-c2ccccc2)c2cc(N)ccc2c2ccc(N)cc21

>  <label value>
Fulfilled

$$$$
>  <compound>
CCC1(c2cccc(O)c2)CCCCN(C)C1 (single isomer, unassigned; (-))

>  <label value>
Not fulfilled

$$$$
>  <compound>
CC[C@@]1(c2cccc(O)c2)CCCCN(CCCCCCCCN2CCCC[C@@](CC)(c3cccc(O)c3)C2)C1

>  <label value>
Not fulfilled

$$$$
>  <compound>
CC[C@@]1(c2cccc(O)c2)CCCCN(CCCCCCCCCCN2CCCC[C@@](CC)(c3cccc(O)c3)C2)C1

>  <label value>
Fulfilled

$$$$

----------
Overview of reported IC50 across a group of compounds:
# subject of test: Cholinesterase (Mus musculus, UniProt Q03311)
# Sequence (Q03311 whole entry): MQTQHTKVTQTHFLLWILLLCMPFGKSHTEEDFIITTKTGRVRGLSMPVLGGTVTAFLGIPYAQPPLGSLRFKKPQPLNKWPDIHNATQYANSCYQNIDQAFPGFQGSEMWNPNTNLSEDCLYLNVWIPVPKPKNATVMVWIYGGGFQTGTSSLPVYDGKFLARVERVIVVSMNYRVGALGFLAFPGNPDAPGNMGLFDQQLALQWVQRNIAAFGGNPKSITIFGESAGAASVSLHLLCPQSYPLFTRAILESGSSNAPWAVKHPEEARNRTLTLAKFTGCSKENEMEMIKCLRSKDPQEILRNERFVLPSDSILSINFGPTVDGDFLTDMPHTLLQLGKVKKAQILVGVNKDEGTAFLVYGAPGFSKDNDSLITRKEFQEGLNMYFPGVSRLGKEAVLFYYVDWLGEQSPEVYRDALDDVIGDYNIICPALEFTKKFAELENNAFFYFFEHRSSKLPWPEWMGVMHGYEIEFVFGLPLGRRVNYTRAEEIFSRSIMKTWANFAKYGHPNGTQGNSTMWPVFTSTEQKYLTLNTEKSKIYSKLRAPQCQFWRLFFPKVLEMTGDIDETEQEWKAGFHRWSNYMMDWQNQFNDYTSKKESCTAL
# assay summary: Inhibition of mouse serum BChE

>  <compound>
CCC1(c2cccc(O)c2)CCCCN(CCCCCN2CCCC[C@@](CC)(c3cccc(O)c3)C2)C1 (single isomer, unassigned; (-))

>  <IC50 / µM>
0.192

$$$$
>  <compound>
CCC1(c2cccc(O)c2)CCCCN(C)C1 (single isomer, unassigned; (-))

>  <IC50 / µM>
15

$$$$
